Data provenance is patent US11986540B2.

# procedure summary: Phase 1a pharmacokinetics in healthy volunteers, single IV administration
# Assay type: in vivo, human
# experimental conditions: human, plasma, intravenous, 0.2 mg/kg, in 220 ml 5% dextrose, 60-min infusion
# From the text: A total of 73 potentially eligible healthy volunteers gave written acknowledgement of informed consent to participate in a Phase 1a study to assess the safety and pharmacokinetics of pafolacianine versus placebo. Fifty-four were found suitable for participation, of which 30 were enrolled in the study. Twenty-four subjects were white, 1 subject was Black/African-American, 1 was Asian, 1 was mixed race and 3 were of another race. […]
recorded metric: AUC(0-t) (ng·h/mL)
Enter your answer as a number in ng·h/mL; do not include the unit.

Any idea what AUC(0-t) was measured for CC1(C)C(=CC=C2CCCC(C=CC3=[N+](CCCCS(=O)(=O)[O-])c4ccc(S(=O)(=O)O)cc4C3(C)C)=C2Oc2ccc(CC(NC(=O)c3ccc(NCc4cnc5nc(N)[nH]c(=O)c5n4)cc3)C(=O)O)cc2)N(CCCCS(=O)(=O)O)c2ccc(S(=O)(=O)O)cc21 (stereo not shown) ? 1310
